Measured values drawn from PubChem BioAssay (EPA / NIEHS) for this set.

- measurementNotes: LTEA_HepaRG_LDH_cytotoxicity: Cytotoxicity Assessment in the Life Technologies and Expression Analysis (LTEA) Assay (AID 2283563)
Active and inactive are the calls of the source. Rule for the calls: active = hit-call score of the fitted dose curve at least 0.9, where 1 is the maximum; inconclusive = response in the unintended direction; inactive = score below 0.9.
// one of 1 = active, 0 = inactive, no free text

> print(dat)
                                   compound  group
1                       c1cc(-c2ccncc2)ccn1      0
2    OC[C@@H](O)[C@@H](O)[C@H](O)[C@H](O)CO      0
3                 CCCc1cc(=O)[nH]c(=S)[nH]1      0
4                           CCCCN(CCCC)CCCC      0
5            O=C(O)Cc1ccccc1Nc1c(Cl)cccc1Cl      0
6  CC1=C(/C=C/C(C)=C/C=C/C(C)=C/CO)C(C)(C)CCC1      0
7                   O=c1[nH]cc(F)c(=O)[nH]1      0
8  Cc1nc(-c2ccc3c(c2)CCN(CCC2CCC(NC(=O)/C=C/c4ccc(F)cc4)CC2)CC3)no1 (stereo not given)      0

Shift focus to the following entry.
// query // outcome(item) with item = Cc1cccc(C)c1O
// result 0

---

- measurementNotes: Tanguay_ZF_120hpf_JAW_legacy: (Legacy) Oregon State University Tanguay Lab 120 Hour Post-fertilization zebrafish Assay for Jaw Malformation (AID 2283638);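 for AC50: active means more embryos with jaw malformation than DMSO controls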
Results filed as inconclusive are left out. Calls of active or inactive are those of the source. Rule for the calls: active = hit-call score of the fitted dose curve at least 0.9, where 1 is the maximum; inconclusive = response in the unintended direction; inactive = score below 0.9.
measurementName: AC50

These recorded examples may help you get a feel for the data.
> print(dat)
                                   compound    result
1              C=CCOC(=O)c1ccccc1C(=O)OCC=C  inactive
2                  Cc1cccc([N+](=O)[O-])c1C  inactive
3  Cc1nc(-c2ccc3c(c2)CCN(CCC2CCC(NC(=O)/C=C/c4ccc(F)cc4)CC2)CC3)no1 (stereo unspecified)  inactive
4                      Clc1cc(Cl)c(Cl)cc1Cl  inactive
5  CC1(C)CC(N=C=O)CC(C)(CN=C=O)C1 (stereo unspecified)  inactive

// query Give the measured AC50 of CN1CCN(Cc2cc(-c3ccc4[nH]c(=O)oc4c3)co2)[C@@H](c2ccc(F)cc2)C1 .
// result 25.7 µM (active)

---

- Read-out: Urokinase-type plasminogen activator receptor (uPAR), PLAUR (gene 5329)
- measurementNotes: BSK_BE3C_uPAR: BioMAP Diversity Plus: BE3C Assay for Urokinase-type plasminogen activator receptor (uPAR) Biomarker Activity (AID 2283039)
- experimentalContext: primary human bronchial epithelial cells; actives raise or lower the signal
Activity calls are given as the source filed them. Rule for the calls: active = hit-call score of the fitted dose curve at least 0.9, where 1 is the maximum; inactive = score below 0.9.
Respond using exactly one of the listed classes: 1 (yes) = active, 0 (no) = inactive

> print(dat)
                                   molecule    group
1  COc1cc(S(=O)(=O)O)c(C)cc1N=Nc1c(O)ccc2cc(S(=O)(=O)O)ccc12   0 (no)
2                       CC=Cc1ccc(O)c(OC)c1   0 (no)
3  CCc1c(C(=O)NN2CCCCC2)nn(-c2ccc(Cl)cc2Cl)c1-c1ccc(Br)cc1  1 (yes)
4        NS(=O)(=O)c1cc2c(cc1Cl)NCNS2(=O)=O   0 (no)
5                            CCCCCCCCCCCCCO   0 (no)

// query Per the records of this test, what outcome belongs to FC(F)(F)C(F)(F)C(F)(F)C(F)(F)C(F)(F)C(F)(F)CCI ?
// result 0 (no)

// query Request: CC1(C)NC(=O)NC1=O
// result 0 (no)

---

- measurementNotes: ATG_M_06_TRANS: Attagene TRANS-FACTORIAL HepG2 Assay for M06 Transcription Factor (Internal Marker) (AID 2282983);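 note: reporter transcript level by RT-PCR then capillary electrophoresis fluorescence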
- experimentalContext: HepG2 Attagene TRANS M06 internal marker reporter
Results filed as inconclusive are left out. Activity calls are given as the source filed them. How the source made its calls: active means hit-call score of the fitted dose curve at least 0.9, where 1 is the maximum; inconclusive means response in the unintended direction; inactive means score below 0.9.
measurementName: outcome

Solved cases below.
> print(dat)
                                   compound    result
1           CNCc1cc(F)ccc1Oc1ccc(Cl)c(Cl)c1  inactive
2  CC1(C)CC(N=C=O)CC(C)(CN=C=O)C1 (stereo unspecified)  inactive
3  CN[C@H]1CC[C@@H](c2ccc(Cl)c(Cl)c2)c2ccc(S(N)(=O)=O)cc21  inactive
4                      C1CCC(SSC2CCCCC2)CC1  inactive

// query Using the record for CCCCCCCCCCC , report its outcome.
// result inactive

// query What about Cc1cccc([N+](=O)[O-])c1C ?
// result inactive

// query One more compound: Cc1ccc2ncccc2c1
// result inactive

---

- Read-out: Tumor necrosis factor (Homo sapiens)
- measurementNotes: BSK_LPS_TNFa: BioMAP Diversity Plus: LPS Assay for Tumour Necrosis Factor alpha (TNFa) Biomarker Activity (AID 2283085)
- experimentalContext: primary human HUVEC with PBMC; actives raise or lower the signal
The source made the active and inactive calls. The calls were made as follows: active = hit-call score of the fitted dose curve at least 0.9, where 1 is the maximum; inactive = score below 0.9.
Select the matching outcome among active, inactive

// below: answered compounds
> print(dat)
                                   compound     group
1                               CCCCCC(=O)O  inactive
2  CN[C@H]1CC[C@@H](c2ccc(Cl)c(Cl)c2)c2ccc(S(N)(=O)=O)cc21    active
3             Nc1ccc2c(c1)C(=O)c1ccccc1C2=O    active
4  CC1(C)CC(N=C=O)CC(C)(CN=C=O)C1 (stereo not given)  inactive
5  COCCOC[C@H](CC1(C(=O)NC2CCC(C(=O)O)CC2)CCCC1)C(=O)Oc1ccc2c(c1)CCC2 (stereo not given in full)  inactive

// query Answer briefly: the call reported for Nc1ccc(S(=O)(=O)c2ccc(N)cc2)cc1 in this assay.
// result inactive

// query Moving on to the next compound: Cc1nc(-c2ccc3c(c2)CCN(CCC2CCC(NC(=O)/C=C/c4ccc(F)cc4)CC2)CC3)no1 (stereo not given)
// result inactive

// query Request: CCCCc1ccc2c(n1)[C@@H](c1ccc(OC)cc1C[C@H](C)C(=O)O)[C@H](C(=O)O)[C@H]2c1ccc2c(c1)OCO2
// result inactive

// query Here is the next compound: CC(CO)OC(C)CO (stereo not given) (tested in a mixture with another compound)
// result inactive

// query Then this compound: CC(C)(C)c1cc(O)c(C(C)(C)C)cc1O
// result active

---

- Read-out: Human Leukocyte Antigen - DR isotype (HLADR), HLA-DRA (gene 3122)
- measurementNotes: BSK_BE3C_HLADR: BioMAP Diversity Plus: BE3C Assay for Human Leukocyte Antigen - DR isotype (HLADR) Biomarker Activity (AID 2283032)
- experimentalContext: primary human bronchial epithelial cells; actives raise or lower the signal
Active and inactive are the calls of the source. Rule for the calls: active = hit-call score of the fitted dose curve at least 0.9, where 1 is the maximum; inactive = score below 0.9.
One label from this list, please: label 1 = active, label 0 = inactive

// query Which result was noted for this compound in the test: CC(C)(C)c1cc(O)c(C(C)(C)C)cc1O
// result label 0

// query Param item: Oc1ccc2c(c1)OC[C@@H](N1CCC(O)(c3ccc(F)cc3)CC1)[C@H]2O
// result label 0

---

- measurementNotes: BSK_3C_SRB: Viability Assessment in the BioMAP Diversity Plus: 3C Assay (AID 2283023);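 note: cells read 24 h after compound dosing; fitted both ways against DMSO so a hit may be signal rise or drop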
- experimentalContext: primary human endothelial cells (HUVEC)
Calls of active or inactive are those of the source. The calls were made as follows: active = hit-call score of the fitted dose curve at least 0.9, where 1 is the maximum; inactive = score below 0.9.
measurementName: AC50

Examples from the recorded data:
> print(dat)
                                   compound    result
1                      Clc1cc(Cl)c(Cl)cc1Cl  inactive
2                       CC=Cc1ccc(O)c(OC)c1  inactive
3  C[C@]12C=CC(=O)C=C1CC[C@@H]1[C@@H]2C(=O)C[C@@]2(C)[C@H]1CC[C@]2(O)C(=O)CO  inactive
4  CC(=O)C(C)=CC1C(C)=CCCC1(C)C (configuration not stated)  inactive
5        NS(=O)(=O)c1cc2c(cc1Cl)NCNS2(=O)=O  inactive

// query Quick check: AC50 of CCCCCCOCCO ?
// result inactive

// query Now consider CN1CCN(Cc2cc(-c3ccc4[nH]c(=O)oc4c3)co2)[C@@H](c2ccc(F)cc2)C1 .
// result 28.2 µM (active)

// query Let us now turn to COc1cc(-c2nc(NC(=O)c3cc4cc(C)cc(C)c4n3CC(=O)O)sc2CCC2CCCCC2)c(OC)cc1Cl
// result 2.92 µM (active)

---

- Read-out: adenosine kinase (ADK) gene, ADK (gene 132)
- measurementNotes: LTEA_HepaRG_ADK: Life Technologies and Expression Analysis (LTEA) Assay for adenosine kinase (ADK) gene using HepaRG (AID 2283471)
- experimentalContext: mRNA level, 48 h; actives raise or lower the signal
The source made the active and inactive calls. How the source made its calls: active means hit-call score of the fitted dose curve at least 0.9, where 1 is the maximum; inactive means score below 0.9.
Write down one outcome, taken from active, inactive

Record excerpt, results attached:
> print(dat)
                                molecule     group
1    Cc1cccc(Nc2cc(Cl)nc(SCC(=O)O)n2)c1C  inactive
2        CNCc1cc(F)ccc1Oc1ccc(Cl)c(Cl)c1  inactive
3  CC(C)c1ccc(C(=O)N=C(N)N)cc1S(C)(=O)=O    active
4      O=C(OCCCCCOC(=O)c1ccccc1)c1ccccc1    active
5                    Cc1ccc(C(C)C)c(O)c1  inactive

// query GET /call?item= COc1cc(C=O)ccc1O returns the recorded outcome of this test.
// result inactive

// query Also, CCCCCC(=O)O please.
// result inactive

// query What would you report for CCCCOC(=O)CCCCCCCCC(=O)OCCCC ?
// result inactive

// query Try this molecule too: NC(=O)Cn1c(=O)cc(CCN2CCN(c3nccc4sccc34)CC2)c2ccc(F)cc21
// result inactive

// query Subsequent entry: CCCCCCCCCCCCCCCCCC(=O)O
// result inactive

// query # iterate: CN1CCCC1=O
// result inactive

// query Quick one: Nc1ccc2c(c1)C(=O)c1ccccc1C2=O
// result inactive

// query How about CC(C)(C)c1cc(O)c(C(C)(C)C)cc1O ?
// result active

// query Lookup CCCCc1ccc2c(n1)[C@@H](c1ccc(OC)cc1C[C@H](C)C(=O)O)[C@H](C(=O)O)[C@H]2c1ccc2c(c1)OCO2
// result inactive

// query Same read-out for CCc1c(C(=O)NN2CCCCC2)nn(-c2ccc(Cl)cc2Cl)c1-c1ccc(Br)cc1 ?
// result inactive

// query Input Clc1cc(Cl)c(Cl)cc1Cl
// result inactive

// query Next record, please: CCOc1ccc2c(c1)C(C)=CC(C)(C)N2
// result inactive

// query Here is the next molecule: COc1ccc2c(c1)c(CC(=O)O)c(C)n2C(=O)c1ccc(Cl)cc1
// result inactive

// query Then COc1ccc(C)cc1N ?
// result inactive

// query And the next one, CCCCCCCCCCCC(=O)OC ?
// result inactive

// query Moving on to the next molecule: COc1ccc(S(=O)(=O)N2C(=O)[C@@](c3ccccc3OC)(N3C[C@H](O)C[C@H]3C(=O)N(C)C)c3cc(Cl)ccc32)c(OC)c1
// result active

// query Another molecule to check: CC=Cc1ccc(O)c(OC)c1
// result inactive
